Reference source for all entries: the RNAGym collection of RNA variant scans (doi:10.1073/pnas.2313332121)

Kindly state polymerase ribozyme fitness (log ratio) for each of the entries shown.
B1: TPR 5TU (parent)
chain: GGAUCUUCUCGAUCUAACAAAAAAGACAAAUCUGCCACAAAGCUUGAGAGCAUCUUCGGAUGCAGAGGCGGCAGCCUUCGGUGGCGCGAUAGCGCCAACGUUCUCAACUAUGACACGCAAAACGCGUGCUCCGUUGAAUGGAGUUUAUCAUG

# Variants of: B1
# test_description: polymerase ribozyme fitness, log enrichment relative to wild type (log ratio); higher = more active; in vitro selection for triplet polymerase activity
This sample holds only a part of the variants without activity.

Note to self: polymerase ribozyme fitness (log ratio) recorded for G59C G62A A122U U134G was -3.13

For A23C C38A C51U U55C A73G G92U C131U A138C the variant record lists polymerase ribozyme fitness (log ratio) as ≤ -4.2

Record U55A G92U . Reported polymerase ribozyme fitness (log ratio): -1.03

# polymerase ribozyme fitness (log ratio) of A20C C76U C85U C95U C96U = -3.03

polymerase ribozyme fitness (log ratio) in this record for G81U G94C U144A : -0.944

Reported polymerase ribozyme fitness (log ratio) of C35A C87U : -4.03

For reference, reported polymerase ribozyme fitness (log ratio) for A19U C27U C36A G42C G86A G100C C118G stands at ≤ -4.2

Lookup result for A91G C93U ; measured polymerase ribozyme fitness (log ratio): -3.88

GET /value?item= A122G U127A G128A &field=polymerase ribozyme fitness (log ratio) returns -4.01

# polymerase ribozyme fitness (log ratio) of C85A A107U A147C U151C = ≤ -4.2

The variant listed as A24C U55A A73U G84U U102A A110U A119C shows polymerase ribozyme fitness (log ratio) equal to ≤ -4.2
